target-or-test-system: Beta-secretase 1 (Homo sapiens)
assay-info: Inhibition of BACE1 using peptide substrate Rh-EVNLDAEFKQuencher at 100 uM by fluorescence resonance energy transfer (FRET) assay
Can you tell me inhibition for the items I'm about to list?
Report as a plain number; the unit % is understood.

(Q) Look up inhibition: `N#Cc1c(NC(=O)COC(=O)CSc2nc(-c3ccccc3)cc(-c3ccccc3)n2)sc2c1CCCC2`
(A) 75

(Q) Quick one: `COc1ccc(-c2cc(-c3ccc(Cl)cc3)c(C#N)c(SCC(=O)N(c3ccccc3)c3ccc4ccccc4c3)n2)cc1`
(A) 68

(Q) Same question for `O=S(=O)(c1ccc(Br)cc1)N(c1cnn(Cc2ccc(Cl)c(Cl)c2)c1)S(=O)(=O)c1ccc(Br)cc1` please.
(A) 50

(Q) Here is the next molecule: `N#Cc1c(NC(=O)C(F)(F)C(F)(F)C(F)(F)C(F)(F)C(=O)Nc2sc3c(c2C#N)CCCCCC3)sc2c1CCCCCC2`
(A) 87

(Q) Then this molecule: `N#Cc1c(-c2ccc(F)cc2)cc(-c2ccccc2)nc1SCC(=O)NC12CC3CC(CC(C3)C1)C2`
(A) 45

(Q) Follow-up entry: `COc1ccc(CCNC(=O)CSc2nc3ccc(Nc4nc(N5CCCCC5)nc(N5CCCCC5)n4)cc3s2)cc1OC`
(A) 80

(Q) Try this molecule next: `O=C(CSc1nc2ccc(Nc3nc(N4CCCCC4)nc(N4CCCCC4)n3)cc2s1)Nc1ccccc1F`
(A) 90

* * *

target-or-test-system: Beta-secretase 1 (Homo sapiens, UniProt P56817)
Sequence (P56817 whole entry): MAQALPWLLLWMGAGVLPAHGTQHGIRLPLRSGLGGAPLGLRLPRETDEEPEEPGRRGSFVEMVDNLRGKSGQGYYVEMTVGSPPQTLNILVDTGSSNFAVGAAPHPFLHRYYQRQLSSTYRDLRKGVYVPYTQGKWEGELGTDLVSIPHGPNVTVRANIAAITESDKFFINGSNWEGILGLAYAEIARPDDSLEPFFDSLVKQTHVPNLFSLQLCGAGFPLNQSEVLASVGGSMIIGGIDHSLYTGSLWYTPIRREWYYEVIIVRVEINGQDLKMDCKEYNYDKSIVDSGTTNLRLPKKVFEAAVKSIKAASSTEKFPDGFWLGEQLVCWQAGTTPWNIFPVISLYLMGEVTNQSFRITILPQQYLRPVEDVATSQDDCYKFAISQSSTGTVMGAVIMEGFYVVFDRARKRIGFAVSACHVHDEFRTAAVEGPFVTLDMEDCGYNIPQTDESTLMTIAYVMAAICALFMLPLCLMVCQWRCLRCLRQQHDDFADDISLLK
assay-info: Inhibition of BACE1 using peptide substrate Rh-EVNLDAEFKQuencher at 100 uM by fluorescence resonance energy transfer (FRET) assay
Peptide text beside a SMILES is read from it.
Assign T to entries whose inhibition meets or exceeds 80%; assign F to the rest.

(Q) Does the molecule `N#Cc1c(-c2ccccc2)cc(-c2ccccc2)nc1SCC(=O)Nc1cccc([N+](=O)[O-])c1` have recorded inhibition that is 80% or more?
(A) T

(Q) How about this molecule: Cc1nn(-c2ccccc2)c(Cl)c1C1Nc2ccccc2-c2nnc(SCc3ccccc3)nc2O1 (centres undefined)
(A) F

(Q) Record: `Cc1nc(N/C(=N\C(=O)Nc2ccccc2)NC(=O)Nc2ccccc2)nc2ccccc12`
(A) T

(Q) Moving on to the next molecule: `O=C(CSc1nnc(Cc2c[nH]c3ccccc23)n1Cc1ccccc1)c1c[nH]c2ccccc12`
(A) F

(Q) For CC[C@H](C)[C@H](NC(=O)[C@H](CCC(=O)O)NC(=O)[C@H](CCC(=O)O)NC(=O)[C@@H](NC(=O)[C@@H](N)CCCCN)[C@@H](C)O)C(=O)N[C@@H](CO)C(=O)N[C@@H](CCC(=O)O)C(=O)N[C@H](C(=O)N[C@@H](CC(N)=O)C(=O)N[C@@H](CC(C)C)[C@@H](O)CC(=O)N[C@H](C(=O)N[C@@H](C)C(=O)N[C@@H](CCC(=O)O)C(=O)N[C@@H](Cc1ccccc1)C(=O)O)C(C)C)C(C)C (HELM PEPTIDE1{K.T.E.E.I.S.E.V.N.[CC(C)C[C@H](N[*:1])[C@@H](O)CC(=O)[*:2]].V.A.E.F}$$$$V2.0) then?
(A) T

(Q) Would you kindly repeat that for `Cc1ccc(NC(=O)Cc2nnc(SCC(=O)Nc3nc(-c4ccccc4)cs3)n2C)cc1` ?
(A) T

* * *

Consider the following compounds; for each one, report its inhibition.
target-or-test-system: Beta-secretase 1 (Homo sapiens, UniProt P56817)
assay-info: Inhibition of BACE1 using peptide substrate Rh-EVNLDAEFKQuencher at 100 uM by fluorescence resonance energy transfer (FRET) assay
The reply should be a number in %, with the unit left off.

(Q) Name the reported inhibition value associated with the compound `Cc1cc(C)nc(N/C(=N\C(=O)N2c3ccccc3Sc3ccccc32)Nc2cccc([N+](=O)[O-])c2)n1`
(A) 80

(Q) Also `O=C(Nc1ncc(Cc2cccc(Cl)c2Cl)s1)c1ccc(CSc2nnc(-c3ccncc3)n2-c2ccccc2)cc1` , if possible.
(A) 78

(Q) Queued: `CCc1nnc(NC(=O)CSc2nc(-c3ccc(F)cc3)cc(-c3ccccc3)c2C#N)s1`
(A) 80
